Reference for the values: the supplement of paper PMC9116672

Test Description: duplex melting temperature (HRM, EvaGreen); higher = more stable duplex
Assay Context: duplex concentration 10 µM; backbone: PS-PO (listed strand fully phosphorothioate, complement phosphodiester)
Quantity Name: duplex melting temperature (°C)
Provide only the numeric value, understood in °C.

Any idea what its duplex melting temperature is? The sequence is `CGTGCAGCACTACTTG`
64.3

Endpoint output: duplex melting temperature of `CTGTAAGGCGATATGTT` . Value?
61.4

Quick check: duplex melting temperature of `CTACCAGCGGCGCCGTT` ?
76.9

Reported duplex melting temperature, sequence `ACTGTATCGCCCTA` : ____
61.6

Name the reported duplex melting temperature value associated with the sequence `AGCACGGTGGTACAACA`
67.1

Please report the recorded duplex melting temperature for `GAACTGCCACTACCAA` .
63.2

Entry `ATAACTTACTCTCGCCT` : reported duplex melting temperature = ?
61

Would you kindly share the measured duplex melting temperature for `CCACTAGCGGCGCCGTT` ?
75.3

Would you kindly share the measured duplex melting temperature for `GTCATTGTGCTTTTGC` ?
57.2

Entry `AGCTGAGCCTGCCGCC` : reported duplex melting temperature = ?
74

So what's the measured duplex melting temperature for this one? `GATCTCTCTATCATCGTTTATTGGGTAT`
66.8

Quick check: duplex melting temperature of `TCTACACCGCGA` ?
60.1

Which duplex melting temperature reading was recorded for the sequence `CGACATGTATGGCACAG` ?
64.5

I have this sequence here, `GCTGAACTAACCACCA` , and I need its recorded duplex melting temperature.
62.1

Using the record for `CGGCGCGCTG` , report its duplex melting temperature.
67.4

I'd like to know its duplex melting temperature. The sequence in question is `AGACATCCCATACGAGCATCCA`
71.9

What does the record list as duplex melting temperature for `AGGAGTGAATGAAATGG` ?
61

====

Test Description: duplex formation enthalpy ΔH (Van't Hoff fit of HRM Tm); higher = less exothermic duplex formation
Assay Context: temperature for dG: 50 °C; NaCl: 500 mM (unadjusted); backbone: PS-PO (listed strand fully phosphorothioate, complement phosphodiester)
Quantity Name: duplex formation enthalpy ΔH (kcal/mol)
The answer is to be given in kcal/mol; state only the numeric part.

Need duplex formation enthalpy ΔH of `CGTGCAGCACTACTTG` , thanks.
-71.3

Give its duplex formation enthalpy ΔH value. Item: `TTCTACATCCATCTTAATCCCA`
-90.6

For the sequence shown here, `GTGAGCAGAAGGGGTT` , give the reported duplex formation enthalpy ΔH.
-71.4

Suppose we examine the sequence `TTGAAAACCCATGTGC` ; what duplex formation enthalpy ΔH value has been reported?
-68.7

So what does the record say about duplex formation enthalpy ΔH for `TGTCGCACCCTACTA` ?
-64.2

# query: duplex formation enthalpy ΔH of entry `GCTGAACTAACCACCA`
-73

// lookup duplex formation enthalpy ΔH for `ATAACTTACTCTCGCCT`
-71.9

Record request: duplex formation enthalpy ΔH value, item `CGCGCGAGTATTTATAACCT`
-107

Could you tell me which duplex formation enthalpy ΔH is on file for `GTGAAACAATGCTGTAG` ?
-75.5

Look up duplex formation enthalpy ΔH for this sequence: `GAGGCAGCCGCGACCTG`
-78.6

Query (sequence): `CAAGCCTCGATTTTGT` ; field requested: duplex formation enthalpy ΔH
-71.3

Name the recorded duplex formation enthalpy ΔH for `CTAAACTGTTATAGCCGG` .
-77.5

I am curious: what duplex formation enthalpy ΔH value has been reported for `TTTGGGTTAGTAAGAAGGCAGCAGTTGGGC` ?
-163

Recorded duplex formation enthalpy ΔH for `CCACTAGCGGCGCCGTT` , please?
-75.1

====

Test Description: duplex melting temperature (HRM, EvaGreen); higher = more stable duplex
Assay Context: duplex concentration 10 µM; backbone: PO-PO (both strands phosphodiester DNA)
Class Satisfied: duplex melting temperature at least 70 °C. Class Not satisfied: duplex melting temperature below 70 °C.

Dear colleague, could you confirm whether `GGTGGCGTTCTT` has duplex melting temperature at or above 70 °C?
Not satisfied

Is duplex melting temperature for `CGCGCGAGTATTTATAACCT` at or above 70 °C?
Satisfied

Evaluate `GCAGGAGCCGCGACCTG` : duplex melting temperature at minimum 70 °C?
Satisfied

Textbook exercise: given the entry `GCGGTTGGTGGCCAAC` , state whether its duplex melting temperature is greater than or equal to 70 °C.
Satisfied

Evaluate `CTACCAGCGGCGCCGTT` : duplex melting temperature at minimum 70 °C?
Satisfied

Check this sequence for duplex melting temperature at or above 70 °C: `AGGAGTGAATGAAATGG`
Not satisfied

State whether the measured duplex melting temperature reaches 70 °C, counting equality as reaching it, for `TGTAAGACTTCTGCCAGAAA`
Satisfied

Has `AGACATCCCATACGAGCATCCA` a recorded duplex melting temperature greater than or equal to 70 °C?
Satisfied

Is reported duplex melting temperature greater than or equal to 70 °C here: `TATTCTGCCAATGGAAC`
Not satisfied

Can `AGCTGAGCCTGCCGCC` be said to have duplex melting temperature at or above 70 °C?
Satisfied

Kindly determine if duplex melting temperature recorded for `GATGCCGCAGCGACCTG` is above or exactly 70 °C.
Satisfied

Hello, I need to know if `GTGAAACAATGCTGTAG` has measured duplex melting temperature not below 70 °C. Thanks!
Not satisfied

State whether the measured duplex melting temperature reaches 70 °C, counting equality as reaching it, for `CGTGCAGCACTACTTG`
Satisfied

Is duplex melting temperature for `GAGGCAGCCGCGACCTG` at or above 70 °C?
Satisfied

Is duplex melting temperature for `CCCAGGCCTCGGATTTA` at or above 70 °C?
Satisfied

Is duplex melting temperature for `TAGACGCGGCCTCTTTCC` at or above 70 °C?
Satisfied

Could you verify whether the entry `AATGAGGAGTGAAATGG` shows duplex melting temperature of no less than 70 °C?
Not satisfied

Could you please find out whether `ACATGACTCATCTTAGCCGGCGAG` has duplex melting temperature that meets 70 °C or exceeds it?
Satisfied

Is duplex melting temperature at least 70 °C? Consider `AGAGCGCCCTGCTGCC`
Satisfied

duplex melting temperature >= 70 °C for `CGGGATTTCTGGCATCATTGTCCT` ?
Satisfied

Does `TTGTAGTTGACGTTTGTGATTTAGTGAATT` have a reported duplex melting temperature of at least 70 °C?
Satisfied

Please indicate if the recorded duplex melting temperature for `TACTTCCAACGTAGG` meets or exceeds 70 °C.
Not satisfied

Decide: duplex melting temperature of `CCACTAGCGGCGCCGTT` >= 70 °C?
Satisfied

====

Test Description: duplex melting temperature (HRM, EvaGreen); higher = more stable duplex
Assay Context: duplex concentration 7.5 µM; backbone: PO-PO (both strands phosphodiester DNA)
Classification field: enter condition met for duplex melting temperature values not below 70 °C, condition not met for values below it.

duplex melting temperature >= 70 °C for `GTCATTGTGCTTTTGC` ?
condition not met

Does the reported duplex melting temperature for `ACGGGTCGTTCCGTG` fall at or above the 70 °C mark?
condition met

Please check the record `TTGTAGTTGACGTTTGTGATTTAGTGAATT` and state if its duplex melting temperature is at or above 70 °C.
condition met

Is reported duplex melting temperature greater than or equal to 70 °C here: `GAGGCAGCCGCGACCTG`
condition met

====

Assignment: determine reported duplex melting temperature for the given sequences.
Test Description: duplex melting temperature (HRM, EvaGreen); higher = more stable duplex
Assay Context: duplex concentration 20 µM; backbone: PO-PO (both strands phosphodiester DNA)
Reply with just the number (in °C).

Which duplex melting temperature is listed for `TTAACCTGCAATGGATC` ?
70.1

Could you share which duplex melting temperature value was measured for `ACTGTATCGCCCTA` ?
70.5

Which duplex melting temperature value is on record for `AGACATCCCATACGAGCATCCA` ?
80.7

Data request, read-out duplex melting temperature, for `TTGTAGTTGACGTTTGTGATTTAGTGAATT`
79.7

Form field: reported duplex melting temperature of `TCTCGCGGTTCCATTA`
74.3

So what's the measured duplex melting temperature for this one? `TGCCATGTTGAAAACC`
69.7

Sample `TATTCTGCCAATGGAAC` — what was its duplex melting temperature?
69.9

Can you look up the measured duplex melting temperature of `CAAGCCTCGATTTTGT` for me?
71.2

Can you look up the measured duplex melting temperature of `CTGTAAGGCGATATGTT` for me?
70.5

Which duplex melting temperature reading was recorded for the sequence `GAACTGCCACTACCAA` ?
71.9

What does the data say about its duplex melting temperature? Entry: `GTGAGCAGAAGGGGTT`
73.7

What value of measured duplex melting temperature is listed for `GCTGTGAAACAATGTAG` ?
68.7

I would be grateful if you could share the reported duplex melting temperature for `GAGGCAGCCGCGACCTG` .
84.5

Look up duplex melting temperature: `AGGAGTGAATGAAATGG`
69

Which value of duplex melting temperature has been reported for `ACGGGTCGTTCCGTG` in the records?
76.6

Would you mind telling me what duplex melting temperature value was observed for `GTGGTACAAATGCGACC` ?
74.1

# duplex melting temperature lookup, item `GCTGAACTAACCACCA`
71.6

Need duplex melting temperature, item `GGTGGCGTTCTT`
67.7

May I ask what duplex melting temperature has been recorded for `CTCAGAGTAGAGCCGA` ?
72.9

# input sequence: `GAACCGTTGATGATCTC` ; wanted: its duplex melting temperature
71.3

Which duplex melting temperature is reported for this sequence? `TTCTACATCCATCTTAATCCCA`
74.4

Need duplex melting temperature of `CACAGCGACATGTATGG` , thanks.
74.2

What does the record list as duplex melting temperature for `TGTCGCACCCTACTA` ?
73.6

Bench note: what duplex melting temperature did `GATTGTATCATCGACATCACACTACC` show?
79.3

What value of duplex melting temperature has been reported for the following sequence? `GCGGTTGGTGGCCAAC`
78.5

Looking for the measured duplex melting temperature of `CGACATGTATGGCACAG` , can you help?
73.8

Given the sequence `CTAAACTGTTATAGCCGG` , what is its reported duplex melting temperature?
72.1

I would be grateful if you could share the reported duplex melting temperature for `AGAGCGCCCTGCTGCC` .
82.8

Entry `GGACGGCGTT` has what duplex melting temperature?
65.9

Return reported duplex melting temperature; argument: `CCGCTCAGAGTAGAGA`
72.1

Quick one: duplex melting temperature of `TCTACACCGCGA` ?
68.1

Data request, read-out duplex melting temperature, for `CCACTAGCGGCGCCGTT`
83.6

For the sequence `CGATTTTGTCAAGCCT` , what duplex melting temperature is on record?
70.7

Name the reported duplex melting temperature value associated with the sequence `CGGCGCGCTG`
72.1

Sample `GGTTGCGGTGGCCAAC` — what was its duplex melting temperature?
78.8

State the recorded duplex melting temperature for this entry: `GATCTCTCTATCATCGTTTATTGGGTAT`
77.9

Look at this sequence and give its reported duplex melting temperature. `GCAGGAGCCGCGACCTG`
83.3

May I ask what duplex melting temperature has been recorded for `CTACCAGCGGCGCCGTT` ?
84.2

Return reported duplex melting temperature; argument: `CTTTTGTGCGGGTAGC`
73.2

Entry `AGCTGAGCCTGCCGCC` has what duplex melting temperature?
82.4

Request the reported duplex melting temperature associated with `GATGCCGCAGCGACCTG`
82.9

Tell me the measured duplex melting temperature of `CGTGCAGCACTACTTG` , please.
74.4

State the recorded duplex melting temperature for this entry: `CGGTGCTTTTGGTAGC`
72.9

Value lookup for duplex melting temperature; key = `CCCAGGCCTCGGATTTA`
77.1

Field request: duplex melting temperature | item: `AATGTCGAACAGCAATT`
71.9

What measured duplex melting temperature goes with `TACTTCCAACGTAGG` ?
67.2

Quick one: duplex melting temperature of `GTGAAACAATGCTGTAG` ?
69.3

So what's the measured duplex melting temperature for this one? `GTCATTGTGCTTTTGC`
69.4

Name the recorded duplex melting temperature for `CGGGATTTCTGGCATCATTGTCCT` .
81.6

Looking for the measured duplex melting temperature of `GCCCGAGCATGACTGCG` , can you help?
80.6

Quick one: duplex melting temperature of `TTCGCGGTCTCCATTA` ?
74.6

Value lookup for duplex melting temperature; key = `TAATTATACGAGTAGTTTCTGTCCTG`
77

Could you tell me which duplex melting temperature is on file for `AGCACGGTGGTACAACA` ?
74.4

For the sequence `GAGCAGAAGGGGTTGT` , what duplex melting temperature is on record?
73.6

Entry `TAGACGCGGCCTCTTTCC` : reported duplex melting temperature = ?
80.6

Which duplex melting temperature is reported for this sequence? `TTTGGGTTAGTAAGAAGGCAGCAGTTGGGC`
85

Can you share its duplex melting temperature? I mean this sequence: `CCGTTGCTGCTAGG`
72.8

duplex melting temperature for `CGTGTGGATAATTAGCT` ?
69.9

I am curious: what duplex melting temperature value has been reported for `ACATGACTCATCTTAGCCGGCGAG` ?
83.7

Entry under review: `AACGAATGTCAGCAATT` . Reported duplex melting temperature?
71.5

Consider the sequence `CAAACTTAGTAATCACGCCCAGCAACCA` and give its measured duplex melting temperature.
83.6

Record request: duplex melting temperature value, item `ATAACTTACTCTCGCCT`
72

Value lookup for duplex melting temperature; key = `AATGAGGAGTGAAATGG`
69.6

Can you look up the measured duplex melting temperature of `TTGAAAACCCATGTGC` for me?
69.7

// lookup duplex melting temperature for `ACTCGCTCTACCTTAAT`
70.4

Look up duplex melting temperature: `CTCGGAGGCCCCATTTA`
77
